Biological target: human EP4 receptor (Homo sapiens, UniProt P35408)
Sequence (P35408 whole entry): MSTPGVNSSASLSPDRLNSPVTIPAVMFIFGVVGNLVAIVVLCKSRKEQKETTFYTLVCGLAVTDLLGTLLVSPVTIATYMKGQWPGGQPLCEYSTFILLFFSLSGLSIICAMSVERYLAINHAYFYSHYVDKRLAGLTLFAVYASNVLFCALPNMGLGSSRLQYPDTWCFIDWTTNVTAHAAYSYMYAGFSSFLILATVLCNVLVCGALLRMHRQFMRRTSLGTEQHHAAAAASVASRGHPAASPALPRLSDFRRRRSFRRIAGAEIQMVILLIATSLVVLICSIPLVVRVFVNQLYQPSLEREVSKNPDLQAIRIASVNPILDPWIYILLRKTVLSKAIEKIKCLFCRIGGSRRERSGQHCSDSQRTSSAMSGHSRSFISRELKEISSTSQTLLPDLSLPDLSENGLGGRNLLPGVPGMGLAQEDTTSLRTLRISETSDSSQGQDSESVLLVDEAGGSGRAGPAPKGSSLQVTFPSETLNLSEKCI
Assay: Measurement of EP4 receptor binding affinity ([3H]PGE2 displacement)
In this section, each of the compounds is paired with its reported Ki.

Sample answers from the record:
CCCCC(C)(C)c1ccc(CN(Cc2cccc(NCC(=O)O)n2)S(=O)(=O)c2cccnc2)s1 > 3 µM
CCCCC(C)(C)c1ccc(CN(Cc2cccc(NCC(=O)O)n2)S(=O)(=O)c2ccccn2)cc1 > 3 µM
CCCCC(C)(C)c1ccc(CN(Cc2cccc(NCC(=O)O)n2)S(=O)(=O)c2ccccn2)s1 > 3 µM

Ask | Which Ki is reported for this compound? "CC(C)(CCCC(F)(F)F)c1ccc(CN(Cc2cccc(NCC(=O)O)n2)S(=O)(=O)c2ccccn2)cc1"
Reply | > 3 µM

Ask | "CCCCC(C)(C)c1ccc(CN(Cc2cccc(NCC(=O)O)n2)S(=O)(=O)c2ccccn2)cc1F" ?
Reply | > 3 µM

Ask | "CCCCC(C)(C)c1ccc(CN(Cc2cccc(NCC(=O)O)n2)S(=O)(=O)c2ccc(F)cc2)cc1" ?
Reply | > 3 µM

Ask | "CCCOCC1(c2ccc(CN(Cc3cccc(NCC(=O)O)n3)S(=O)(=O)c3ccccn3)cc2)CC1" ?
Reply | > 3 µM

----------
Molecular target: human EP2 receptor (Homo sapiens, UniProt P43116)
Sequence (P43116 whole entry): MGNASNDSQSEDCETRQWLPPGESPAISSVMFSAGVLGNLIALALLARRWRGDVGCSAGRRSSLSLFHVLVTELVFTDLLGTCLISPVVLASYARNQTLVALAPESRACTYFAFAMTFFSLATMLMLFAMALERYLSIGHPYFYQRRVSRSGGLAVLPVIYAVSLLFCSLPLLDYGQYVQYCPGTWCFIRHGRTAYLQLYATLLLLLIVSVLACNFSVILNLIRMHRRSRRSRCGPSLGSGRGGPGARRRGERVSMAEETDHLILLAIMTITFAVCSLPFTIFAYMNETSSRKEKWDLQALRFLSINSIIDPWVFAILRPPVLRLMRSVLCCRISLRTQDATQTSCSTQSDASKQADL
Test: Measurement of EP2 agonist activity (cAMP amount in cells)
Settings: HEK 293 cells expressing human EP2 receptor, cAMP increase, 30 minutes
Method: Measurement of EP2 agonist activity was carried out according to the method of Wilson et al. (European Journal of Pharmacology, 501, 49 (2004)). […] After 30 minutes, an amount of cAMP in the cells was measured with a cAMP Biotrak EIA System kit (available from GE Healthcare Bioscience).
Where a name gives a salt, the structure may show the parent alone.
Recorded metric: pEC50
Expect pEC50 as a plain number equal to -log10 of the molar concentration.

Compound	pEC50
CCCCC(C)c1ccc(CN(Cc2cccc(NCC(=O)O)n2)S(=O)(=O)c2ccccn2)cc1 (stereo not shown)	8.55

Ask | Which pEC50 is reported for this compound? CC1(c2ccc(CN(Cc3cccc(NCC(=O)O)n3)S(=O)(=O)c3cccnc3)cc2)CC1 [Example 5, hydrochloride]
Reply | 8.59

Ask | "CCCCC(C)(C)c1ccc(CN(Cc2cccc(NCC(=O)O)n2)S(=O)(=O)c2cccc(F)c2)cc1" ?
Reply | 8.26

Ask | CC(C)(C)c1ccc(CN(Cc2cccc(NCC(=O)O)n2)S(=O)(=O)c2cccc(F)c2)cc1 [Example 31, hydrochloride] ?
Reply | 8.21

Ask | "CCCC=C(C)c1ccc(CN(Cc2cccc(NCC(=O)O)n2)S(=O)(=O)c2ccccn2)cc1" ?
Reply | 8.35

Ask | "CCCCC(C)(C)c1ccc(CN(Cc2cccc(NCC(=O)O)n2)S(=O)(=O)c2ccc(F)cc2)s1" ?
Reply | 8.22

Ask | "CCC1(c2ccc(CN(Cc3cccc(NCC(=O)O)n3)S(=O)(=O)c3ccc(F)cc3)cc2)CC1" ?
Reply | 8.10

----------
Biological target: human EP2 receptor (Homo sapiens, UniProt P43116)
Construct: purchased Euroscreen S.A. ES-562-M; host or cells: HEK293 cells
Test: Measurement of EP2 receptor binding affinity ([3H]PGE2 displacement)
Details: read-out: Ki value of EP2 receptor binding affinity
Structures can show the parent of a compound that is named as a salt.
Labelling: Ki reported below 8 nM becomes met; at or above becomes not met.

Field: example entries. Status: answers known.
Compound	Class
CCC(C)(C)c1ccc(CN(Cc2cccc(NCC(=O)O)n2)S(=O)(=O)c2ccccn2)cc1 [Example 28, hydrochloride]	not met
CC(C)(C)c1ccc(CN(Cc2cccc(NCC(=O)O)n2)S(=O)(=O)c2cccc(F)c2)cc1 [Example 31, hydrochloride]	not met
CCCCC(C)(C)c1ccc(CN(Cc2cccc(NCC(=O)O)n2)S(=O)(=O)c2ccc(F)cc2)cc1	met
CC(C)(CCCC(F)(F)F)c1ccc(CN(Cc2cccc(NCC(=O)O)n2)S(=O)(=O)c2ccccn2)cc1	not met
CCCCC(C)c1ccc(CN(Cc2cccc(NCC(=O)O)n2)S(=O)(=O)c2ccccn2)cc1 (centres unmarked)	met

Ask | I'd appreciate it if you could check whether "CCCCC(C)(C)c1ccc(CN(Cc2cccc(NCC(=O)O)n2)S(=O)(=O)c2ccccn2)cc1F" has Ki smaller than 8 nM.
Reply | met

Ask | "CCCCC(C)(C)c1ccc(CN(Cc2cccc(NCC(=O)O)n2)S(=O)(=O)c2ccncc2)cc1" ?
Reply | met

Ask | "CCCCC(C)(C)c1ccc(CN(Cc2cccc(NCC(=O)O)n2)S(=O)(=O)c2ccccn2)c(F)c1" ?
Reply | met

Ask | "CCCCC(C)(C)c1ccc(CN(Cc2cccc(NCC(=O)O)n2)S(=O)(=O)c2ccc(F)cc2)s1" ?
Reply | met

Ask | CC(C)(C)c1ccc(CN(Cc2cccc(NCC(=O)O)n2)S(=O)(=O)c2ccc(Cl)cc2)cc1 [Example 33, hydrochloride] ?
Reply | met

Ask | "CCCCC(C)(C)c1ccc(CN(Cc2cccc(NCC(=O)O)n2)S(=O)(=O)c2ccccn2)cc1" ?
Reply | met

Ask | CCCCC1(c2ccc(CN(Cc3cccc(NCC(=O)O)n3)S(=O)(=O)c3cccnc3)cc2)CC1 [Example 10, hydrochloride] ?
Reply | not met

Ask | CC(C)(C)c1ccc(CN(Cc2cccc(NCC(=O)O)n2)S(=O)(=O)c2ccc(F)cc2)cc1 [Example 30, hydrochloride] ?
Reply | not met

Ask | "CCCCC(C)(C)c1ccc(CN(Cc2cccc(NCC(=O)O)n2)S(=O)(=O)c2cccnc2)s1" ?
Reply | met

----------
Target: UniProt P43116
Experiment: Measurement of EP2 agonist activity (cAMP amount in cells)
Settings: HEK 293 cells expressing human EP2 receptor, cAMP increase, 30 minutes
Structures can show the parent of a compound that is named as a salt.
Labelling: EC50 reported below 5 nM becomes met; at or above becomes not met.

Compound	Class
CCC(CC)c1ccc(CN(Cc2cccc(NCC(=O)O)n2)S(=O)(=O)c2cccnc2)cc1	not met
CC(C)(C)c1ccc(CN(Cc2cccc(NCC(=O)O)n2)S(=O)(=O)c2ccc(F)cc2)cc1 [Example 30, hydrochloride]	met
CCCCC(C)(C)c1ccc(CN(Cc2cccc(NCC(=O)O)n2)S(=O)(=O)c2cccnc2)s1	not met

Ask | I'd appreciate it if you could check whether "CCCC(C)(C)c1ccc(CN(Cc2cccc(NCC(=O)O)n2)S(=O)(=O)c2ccccn2)cc1" has EC50 smaller than 5 nM.
Reply | not met

----------
Target: human EP2 receptor (Homo sapiens, UniProt P43116)
Construct: purchased Euroscreen S.A. ES-562-M; host or cells: HEK293 cells
Assay: Measurement of EP2 receptor binding affinity ([3H]PGE2 displacement)
Details: membrane fraction of HEK293 cells expressing human EP2 receptor, [3H]PGE2 10 nM; Table 2; read-out: Ki value of EP2 receptor binding affinity
Counter-ions that a name gives are not always drawn.
Recorded metric: Ki (nM)
API: value field is a number in nM; no unit string.

Ask | Which Ki is reported for this compound? CCCCC1(c2ccc(CN(Cc3cccc(NCC(=O)O)n3)S(=O)(=O)c3ccccn3)cc2)CC1 [Example 9, hydrochloride]
Reply | 2.9

----------
Target: human EP3 receptor (Homo sapiens, UniProt P43115)
Sequence (P43115 whole entry): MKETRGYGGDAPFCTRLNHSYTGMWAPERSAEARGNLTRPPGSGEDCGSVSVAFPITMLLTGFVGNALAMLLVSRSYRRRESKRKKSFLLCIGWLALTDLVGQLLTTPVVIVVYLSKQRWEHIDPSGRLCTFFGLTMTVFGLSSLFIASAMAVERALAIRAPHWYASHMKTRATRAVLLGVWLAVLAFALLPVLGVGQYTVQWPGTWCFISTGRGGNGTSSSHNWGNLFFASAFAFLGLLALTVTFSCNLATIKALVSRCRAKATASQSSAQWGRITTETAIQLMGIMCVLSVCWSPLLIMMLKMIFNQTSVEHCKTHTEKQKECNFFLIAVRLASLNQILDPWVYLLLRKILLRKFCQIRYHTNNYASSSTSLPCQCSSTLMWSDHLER
Assay: Measurement of EP3 receptor binding affinity ([3H]PGE2 displacement)
Details: membrane fraction of Chem-1 cells expressing human EP3 receptor, [3H]PGE2 2 nM
Counter-ions that a name gives are not always drawn.
Recorded metric: Ki

Ask | Which Ki is reported for this compound? CCCCC1(c2ccc(CN(Cc3cccc(NCC(=O)O)n3)S(=O)(=O)c3ccccn3)cc2)CC1 [Example 9, hydrochloride]
Reply | > 3000 nM

----------
Biological target: human EP3 receptor (Homo sapiens)
Experiment: Measurement of EP3 receptor binding affinity ([3H]PGE2 displacement)
pKi: −log10 of the molar value.
In this section, each of the compounds is paired with its reported pKi.

Compound	Result
CCCCC(C)(C)c1ccc(CN(Cc2cccc(NCC(=O)O)n2)S(=O)(=O)c2ccccn2)cc1 [Example 37]	< 5.52
CCCCC(C)(C)c1ccc(CN(Cc2cccc(NCC(=O)O)n2)S(=O)(=O)c2ccccn2)s1 [Example 2]	< 5.52

Pending compound:
Ask | Which pKi is reported for this compound? CCCCC(C)(C)c1ccc(CN(Cc2cccc(NCC(=O)O)n2)S(=O)(=O)c2ccc(F)cc2)cc1 [Example 47]
Reply | < 5.52

----------
Biological target: human EP1 receptor (Homo sapiens)
Sequence (P34995 1-402): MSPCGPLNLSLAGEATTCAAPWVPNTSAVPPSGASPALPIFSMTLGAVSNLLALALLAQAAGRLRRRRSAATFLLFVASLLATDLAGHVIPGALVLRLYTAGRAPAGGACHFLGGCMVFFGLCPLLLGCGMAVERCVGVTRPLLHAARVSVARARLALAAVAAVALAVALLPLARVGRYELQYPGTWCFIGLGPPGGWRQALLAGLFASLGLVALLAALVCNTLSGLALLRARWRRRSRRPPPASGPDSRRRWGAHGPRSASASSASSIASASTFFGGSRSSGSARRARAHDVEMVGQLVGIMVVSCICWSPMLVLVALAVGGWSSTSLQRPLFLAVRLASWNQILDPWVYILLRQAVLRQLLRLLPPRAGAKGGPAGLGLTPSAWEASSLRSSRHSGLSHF
Test: Measurement of EP1 receptor binding affinity ([3H]PGE2 displacement)
Conditions: membrane fraction of Chem-1 cells expressing human EP1 receptor, [3H]PGE2 10 nM
Recorded metric: Ki (nM)
API: value field is a number in nM; no unit string.

Ask | Which Ki is reported for this compound? CCCCC[C@H](O)/C=C/[C@H]1[C@H](O)CC(=O)[C@@H]1C/C=C\CCCC(=O)O [PGE2, Prostaglandin E2, reference compound]
Reply | 9
